# subject of test: RSV F on RSV-A2 virus (Respiratory syncytial virus, RSV-A2, UniProt P03420 26-574)
# assay details: cell-based or functional assay
reported property: Neutralization IC50 (RSV subtype A) (µg/mL)
A number alone suffices; assume µg/mL.

Worked cases, answers included:
Given ADI-36675 (antibody, V domains shown) VH: EVQLVESGGGLVQPGGSLRLSCAASGFTFNRFAMSWVRQAPGKGLEWVSGISGSGGSTLYADSVKGRFTISRDNSKNTLYLQINSLRVEDTAVYYCASRSSYDDVWNGYVDWDWGFDFYYYGMDVWGQGTTVTVSS VL: QAVVTQEPSMSAAPGQKVTISCSGGDSNIRNNYVFWYQQLPGTAPKLLIYDNTKRPSGIPGRFSGSKSGASATLDITGLQTGDEADYYCGTWDSSLSALVFGGGTQLTVL , respond with its Neutralization IC50 (RSV subtype A).
0.006

Given ADI-41788 (antibody, V domains shown) VH: QVQLVQSGAEVKKPGASVKVSCQASGYTLTTYDINWVRQAPGQGLEWMGWMNANSGNTGYAQKFQGRVTMTRNISISTAYMELSSLGPEDTAVYYCARGFYKWNDWSFDYWGQGTLVTVSS VL: QSVLTQPPSVSVAPGQTARITCGGNNIGSKSVHWYQQKPGQAPVLVVYDDSDRPSGIPERFSGSNSGNTAPLTISRVEAGDEADYYCQVWDGDSAHHAVFGGGTQLTVL , respond with its Neutralization IC50 (RSV subtype A).
0.47

Given ADI-41555 (antibody, V domains shown) VH: EVQLVESGPGLVKPSQTLSLTCSVSGGSISSGIHYWSWIRQHPGKGLEWIGYIYYSGSTYYNPSLESRITISVDTSKNQFSLKVSSVTAADTAVYYCARVNRASRMTTFGVANERSIYYFMDVWGKGTTVTVSS VL: ETTLTQSPATLSLSPGERATLSCRATQSVGNYLAWYQQKPGQAPRLLIHDASNRATGIPARFSGSGSGTDFTLTISSLEPEDFAVYYCQLRINWLFTFGPGTKVEIK , respond with its Neutralization IC50 (RSV subtype A).
25

Given ADI-36673 (antibody, V domains shown, also called Ab 830; Antibody Number 830) VH: QVQLVQSGGGLVKPGGSLRLSCAASGFTFRDFYMSWIRQAPGKGLEWVSNISPSSTYTNYADSVKGRFTISRDNAKNSLYLQMNSLRAEDTAVYYCVKSEGYSSGWYDYWGQGTLVTVSS VL: QPVLTQPPSVSGAPGQRVTISCTGSSSNIGAGYDVNWYHQLPGAAPKLLIYTNSNRPSGVPDRFSGSKSGTSASLAITGLQAEDEADYYCQSYDSSLSGYVFGTGTKLTVL , respond with its Neutralization IC50 (RSV subtype A).
0.02

New cases:
Given ADI-41578 (antibody, V domains shown, also called Ab 852; Antibody Number 852) VH: EVQLVESGGGVVQPGRSLRLSCAASGFTLSSYVMDWVRQAPGKGLEWVAVISYDGSSKYYADSVKGRFTVSRDNSNNAMYLQMNSLRAEDTAVYYCARDPYYDILTGYSYFDYWGHGTTVTVSS VL: SYVLTQPPSVSGAPRQTATITCGGNNIGSKSVNWYQQKPGQAPVLVVYDDSARPSGIPERFSGSNSGNTATLTVSSVEAGDEADYFCQVWDTSSAPYPWVFGGGTKLTVL , respond with its Neutralization IC50 (RSV subtype A).
0.0398

Values from patent US20260258115A1
